Provide the recorded IC50 for the entries that follow.
# Test system: MDA-MB-231
# ASSAY_INFO: Cytotoxicity against human MDA-MB-231 cells after 48 hrs by MTT assay
# CONDITION_CONTEXT: MDA-MB-231, 48 h
Your answer is read as µM, so omit the unit and give the number.

Enquiry: For `COc1cc(OC)c2c(=O)c(OCCCCN3CCN(C)CC3)c(-c3cc(OC)c(OC)c(OC)c3)oc2c1` , write its IC50.
Return: 3.87

Enquiry: Return the recorded IC50 value; entry: `COc1cc(OC)c2c(=O)c(OCCCCN3CCOCC3)c(-c3cc(OC)c(OC)c(OC)c3)oc2c1`
Return: 4.17

Enquiry: Return IC50 for the following compound: `CCN(CC)CCCCOc1c(-c2cc(OC)c(OC)c(OC)c2)oc2cc(OC)cc(OC)c2c1=O`
Return: 13

Enquiry: Read off the recorded IC50 for `COc1cc(OC)c2c(=O)c(OCC(=O)N/N=C/c3sccc3C)c(-c3cc(OC)c(OC)c(OC)c3)oc2c1`
Return: 4.47

Enquiry: Determine its reported IC50: `COc1cc(OC)c2c(=O)c(OCCCCN3CCCCC3)c(-c3cc(OC)c(OC)c(OC)c3)oc2c1`
Return: 3.03

Enquiry: Dear colleague, please send me the reported IC50 for `COc1cc(OC)c2c(=O)c(OCCCN3CCOCC3)c(-c3cc(OC)c(OC)c(OC)c3)oc2c1` when you can.
Return: 2.9

Enquiry: Fill in IC50 for record `COc1cc(OC)c2c(=O)c(OCC(=O)N/N=C/c3ccccc3F)c(-c3cc(OC)c(OC)c(OC)c3)oc2c1`
Return: 3.4

Enquiry: Dear colleague, please send me the reported IC50 for `COc1cc(OC)c2c(=O)c(OCCCN3CCCCC3)c(-c3cc(OC)c(OC)c(OC)c3)oc2c1` when you can.
Return: 2.16
